Source: patent US20090311237A1

assay: Pharmacokinetics of ZA in pig serum after IV or SC infusion with or without rHuPH20 (LC-MS-MS, non-compartmental analysis); format: in vivo; settings: female, Yorkshire, pig, serum, iv, […], pig; ZA […] 20-min IV infusion; n=3; read-out: Vss, median
assay.endpoint: Vd (L/kg)

• O=P(O)(O)C(O)(Cn1ccnc1)P(=O)(O)O = 0.131

###

assay: Phase 1 Stage 1 clinical pharmacokinetics of SC ZA co-administered with rHuPH20; assay type: in vivo, human; settings: human, serum, sc, serum; ZA 2 mg SC infusion + 24000 Units rHuPH20; 8 h post infusion; individual subjects; read-out: Zoledronic Acid Concentration
assay.endpoint: concentration at 8 h (ng/mL)

* O=P(O)(O)C(O)(Cn1ccnc1)P(=O)(O)O [ZA] | 3.15

###

test: Phase 1 Stage 1 clinical pharmacokinetics of SC ZA co-administered with rHuPH20; format: in vivo, human; conditions: human, serum, sc, serum; ZA 2 mg SC infusion + 24000 Units rHuPH20; 12 h post infusion; individual subjects; read-out: Zoledronic Acid Concentration
assay.endpoint: concentration at 12 h (ng/mL)

* O=P(O)(O)C(O)(Cn1ccnc1)P(=O)(O)O [ZA] | 1.5

###

test: Phase 1 Stage 1 clinical pharmacokinetics of SC ZA co-administered with rHuPH20; format: in vivo, human; settings: human, serum, sc, ZA 0.25 mg SC + 24000 U rHuPH20; individual subjects; read-out: Vz/F
assay.endpoint: Vd/F

- O=P(O)(O)C(O)(Cn1ccnc1)P(=O)(O)O: 0.402 L/kg

###

experiment: Phase 1 Stage 1 clinical pharmacokinetics of SC ZA co-administered with rHuPH20; format: in vivo, human; conditions: human, serum, sc, […], AUC (0-24 h), Subj 11; ZA […] SC; inf 0.554 hr; PH20 23928 U
assay.endpoint: AUC(0-t) (ng·h/mL)

• O=P(O)(O)C(O)(Cn1ccnc1)P(=O)(O)O = 29.9

###

test: Phase 1 Stage 1 clinical pharmacokinetics of SC ZA co-administered with rHuPH20; assay type: in vivo, human; conditions: human, serum, sc, 0.0691 mg/kg, AUC (0-24 h), Subj 39; ZA 0.0691 mg/kg SC; inf 0.552 hr; PH20 23856 U
assay.endpoint: AUC(0-t) (ng·h/mL)

- O=P(O)(O)C(O)(Cn1ccnc1)P(=O)(O)O: 619

###

assay: Pharmacokinetics of ZA in pig serum after IV or SC infusion with or without rHuPH20 (LC-MS-MS, non-compartmental analysis); type: in vivo; settings: female, Yorkshire, pig, serum, intravenous, […], animal ID 57, Study Group 1, IV 20 min infusion, ZA […], rHuPH20 0 U/mL, time 0.016 h; read-out: Zoledronic Acid Serum Concentration
assay.endpoint: concentration at 0.016 h (ng/mL)

* O=P(O)(O)C(O)(Cn1ccnc1)P(=O)(O)O | 255

###

experiment: Phase 1 Stage 1 clinical pharmacokinetics of SC ZA co-administered with rHuPH20; type: in vivo, human; settings: human, serum, sc, […], AUC (0-12 h), Subj 51; ZA […] SC; inf 0.251 hr; PH20 6024 U
assay.endpoint: AUC(0-t)

• O=P(O)(O)C(O)(Cn1ccnc1)P(=O)(O)O = 384 ng·h/mL

###

assay: Phase 1 Stage 1 clinical pharmacokinetics of SC ZA co-administered with rHuPH20; assay type: in vivo, human; details: human, serum, sc, serum; ZA 0.5 mg SC infusion + 24000 Units rHuPH20; 8 h post infusion; n=3; read-out: Mean Conc.
assay.endpoint: concentration at 8 h (ng/mL)

* O=P(O)(O)C(O)(Cn1ccnc1)P(=O)(O)O | 1.32

###

experiment: Pharmacokinetics of ZA in pig serum after IV or SC infusion with or without rHuPH20 (LC-MS-MS, non-compartmental analysis); type: in vivo; details: female, Yorkshire, pig, serum, sc, […], pig 69; SC ZA […], 25 mL over 4 min, no rHuPH20; read-out: CL/F (converted)
assay.endpoint: CL/F (mL/min/kg)

* O=P(O)(O)C(O)(Cn1ccnc1)P(=O)(O)O | 9.28

###

experiment: Pharmacokinetics of ZA in pig serum after IV or SC infusion with or without rHuPH20 (LC-MS-MS, non-compartmental analysis); type: in vivo; conditions: female, Yorkshire, pig, serum, iv, […], pig; ZA […] 20-min IV infusion; n=3; read-out: Vz, median
assay.endpoint: Vd (L/kg)

* O=P(O)(O)C(O)(Cn1ccnc1)P(=O)(O)O | 0.498

###

test: Phase 1 Stage 1 clinical pharmacokinetics of SC ZA co-administered with rHuPH20; assay type: in vivo, human; conditions: human, serum, sc, ZA 2 mg SC + 24000 U rHuPH20; median, n=3; read-out: Vz/F
assay.endpoint: Vd/F (L/kg)

- O=P(O)(O)C(O)(Cn1ccnc1)P(=O)(O)O: 2.48

###

experiment: Phase 1 Stage 1 clinical pharmacokinetics of SC ZA co-administered with rHuPH20; assay type: in vivo, human; conditions: human, serum, sc, serum; ZA 1 mg SC infusion + 24000 Units rHuPH20; 8 h post infusion; individual subjects; read-out: Zoledronic Acid Concentration
assay.endpoint: concentration at 8 h (ng/mL)

- O=P(O)(O)C(O)(Cn1ccnc1)P(=O)(O)O: 2.44

###

experiment: Phase 1 Stage 1 clinical pharmacokinetics of SC ZA co-administered with rHuPH20; assay type: in vivo, human; conditions: human, serum, sc, 0.0791 mg/kg, Subj 37; ZA 0.0791 mg/kg SC; inf 0.556 hr; PH20 24000 U
assay.endpoint: Cmax

* O=P(O)(O)C(O)(Cn1ccnc1)P(=O)(O)O [ZA] | 131 ng/mL

###

Experiment: Phase 1 Stage 1 clinical pharmacokinetics of SC ZA co-administered with rHuPH20
Format: in vivo, human
Conditions: human, serum, sc, AUC (0-12h), ZA 5 mg SC + 24000 U rHuPH20; median, n=3
Experimental: A pharmacokinetic study of zoledronic acid (ZA) co-administered with rHuPH20 in human subjects was conducted. […] Serum concentration of ZA was determined using a qualified LC-MS-MS assay after derivatization with diazomethane (Zhu, L S et al. (2006) Rapid Commun. […] The assay range was from 2.0 to 400 ng/mL with a lower limit of quantitation (LLOQ) at 2.0 ng/mL. […] Summary statistics (mean, standard deviation, and median) were calculated using JMP or Microsoft Excel.
assay.endpoint: AUC(0-t) (ng·h/mL)

- O=P(O)(O)C(O)(Cn1ccnc1)P(=O)(O)O: 499

###

test: Phase 1 Stage 1 clinical pharmacokinetics of SC ZA co-administered with rHuPH20; type: in vivo, human; details: human, serum, sc, 0.0608 mg/kg, Subj 68; ZA 0.0608 mg/kg SC; inf […]; PH20 2880 U; read-out: Tmax
assay.endpoint: Tmax (h)

• O=P(O)(O)C(O)(Cn1ccnc1)P(=O)(O)O = 1

###

assay: Pharmacokinetics of ZA in pig serum after IV or SC infusion with or without rHuPH20 (LC-MS-MS, non-compartmental analysis); type: in vivo; details: female, Yorkshire, pig, serum, subcutaneous, […], pig 68, Study Group 3, SC, ZA […], rHuPH20 10000 U/mL, 10 mL over 1.6 min, time 0.05 h; read-out: Zoledronic Acid Serum Concentration
assay.endpoint: concentration at 0.05 h

- O=P(O)(O)C(O)(Cn1ccnc1)P(=O)(O)O [ZA]: 342 ng/mL

###

assay: Phase 1 Stage 1 clinical pharmacokinetics of SC ZA co-administered with rHuPH20; format: in vivo, human; conditions: human, serum; Subj 11; ZA 0.0033 mg/kg SC; inf 0.554 hr; PH20 23928 U; read-out: T½ λz (converted)
assay.endpoint: half-life (h)

* O=P(O)(O)C(O)(Cn1ccnc1)P(=O)(O)O | 2.2

###

assay: Phase 1 Stage 1 clinical pharmacokinetics of SC ZA co-administered with rHuPH20; format: in vivo, human; conditions: human, serum, sc, […], AUC (0-48 h), Subj 51; ZA […] SC; inf 0.251 hr; PH20 6024 U
assay.endpoint: AUC(0-t) (ng·h/mL)

• O=P(O)(O)C(O)(Cn1ccnc1)P(=O)(O)O = 471

###

assay: Pharmacokinetics of ZA in pig serum after IV or SC infusion with or without rHuPH20 (LC-MS-MS, non-compartmental analysis); type: in vivo; conditions: female, Yorkshire, pig, serum, sc, […], pig 62; SC ZA […], 50 mL over 8 min, no rHuPH20; read-out: SC Bioavailability (0-1 h)
assay.endpoint: bioavailability (%)

• O=P(O)(O)C(O)(Cn1ccnc1)P(=O)(O)O [ZA] = 54

###

test: Phase 1 Stage 1 clinical pharmacokinetics of SC ZA co-administered with rHuPH20; type: in vivo, human; conditions: human, serum, sc, 0.0791 mg/kg, AUC (0-48 h), Subj 37; ZA 0.0791 mg/kg SC; inf 0.556 hr; PH20 24000 U
assay.endpoint: AUC(0-t) (ng·h/mL)

- O=P(O)(O)C(O)(Cn1ccnc1)P(=O)(O)O: 578
